- TESTED_TARGET: human LAG3 expressed on cells (human) (UniProt P18627)
- Sequence (P18627 23-525): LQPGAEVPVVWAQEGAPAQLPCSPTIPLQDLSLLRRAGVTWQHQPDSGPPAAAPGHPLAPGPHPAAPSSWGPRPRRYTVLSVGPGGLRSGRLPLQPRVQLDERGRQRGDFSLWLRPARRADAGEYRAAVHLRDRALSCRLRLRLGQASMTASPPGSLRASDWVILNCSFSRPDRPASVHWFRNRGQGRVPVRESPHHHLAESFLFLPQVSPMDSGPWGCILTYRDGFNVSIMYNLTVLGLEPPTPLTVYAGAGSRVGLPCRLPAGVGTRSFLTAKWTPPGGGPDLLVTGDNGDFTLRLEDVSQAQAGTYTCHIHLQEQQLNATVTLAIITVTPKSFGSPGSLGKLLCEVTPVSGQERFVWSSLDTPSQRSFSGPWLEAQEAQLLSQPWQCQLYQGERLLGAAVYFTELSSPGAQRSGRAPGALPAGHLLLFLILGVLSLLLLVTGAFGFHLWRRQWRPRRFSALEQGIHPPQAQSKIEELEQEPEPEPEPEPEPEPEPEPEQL
- TEST_SUMMARY: cell-based or functional assay
Reported Efficacy (Normalized to BMS) values follow for various binders
Note: unit % is implicit; provide only the numeric part.

// known answers, use as guide
sdAb fusion 25-2015-2 (Fc fusion, not shown: a dimerising Fc or GST) QLQLVESGGGLVQAGGSLRLSCAASGSIESFSFMGWYRQAPGKQRELVAGFTGAASLSFSTYTDAVKGRFTISRDNAKNTVYLQMNSLKPEDTAVYFCNVDPWSQSWPGRYWGQGTQVTVSSGGGGSGGGGSQLQLVESGGGLAQTGGSLRLSCAAAGFTFDDTATGWFRQAPGKNREGVACISSSDGRIHYIDSAKGRFTISKDNAKKTVYLQMDSLKPEDTAVYYCAAARKGSTDCQGAIWGSWGQGTQVIVSSEPKSCDKTHTCPPCPAPELLG :: 101
sdAb fusion 25-17-2 (Fc fusion, not shown: a dimerising Fc or GST) QLQLVESGGGLVQAGGSLRLSCAASGSIESFSFMGWYRQAPGKQRELVAGFTGAASLSFSTYTDAVKGRFTISRDNAKNTVYLQMNSLKPEDTAVYFCNVDPWSQSWPGRYWGQGTQVTVSSGGGGSGGGGSQLQLVESGGGLVQPGGSLRLSCAASGLTLDGYAIGWFRQAPGKEREGLACISGSDGSTHYLDSVKGRFTISRDNGKNTMALQMNSLQFGDTAIYYCAARRGSCSGSWTYWGQGTQVTVSSEPKSCDKTHTCPPCPAPELLG :: 102

Then this binder:
Given sdAb fusion 25-17-1 (Fc fusion, not shown: a dimerising Fc or GST) QLQLVESGGGLVQAGGSLRLSCAASGSIESFSFMGWYRQAPGKQRELVAGFTGAASLSFSTYTDAVKGRFTISRDNAKNTVYLQMNSLKPEDTAVYFCNVDPWSQSWPGRYWGQGTQVTVSSGGGGSQLQLVESGGGLVQPGGSLRLSCAASGLTLDGYAIGWFRQAPGKEREGLACISGSDGSTHYLDSVKGRFTISRDNGKNTMALQMNSLQFGDTAIYYCAARRGSCSGSWTYWGQGTQVTVSS , state its recorded Efficacy (Normalized to BMS). 106
